Items are presented alongside their recorded IC50.
Tested on: CEM cells HIV-1 protection, formazan growth assay
Test: NCI AIDS Antiviral Assay
Conditions: measured here: growth of uninfected CEM cells

Use the examples below as a reference point.
c1ccc2sc(SCN3CCN(CSc4nc5ccccc5s4)CC3)nc2c1 : > 1.62 µM
NC(=S)N/N=C1\COC(C(F)(F)F)(C(F)(F)F)C1 : 166 µM
COC(=O)[C@H](Cc1c[nH]c2ccccc12)NP(=O)(OCCC#N)OCC1OC(n2cc(C)c(=O)[nH]c2=O)CC1N=[N+]=[N-] (stereo not given in full) : 186 µM
CCOC(=O)N1CCN(C=S)CC1 : > 1230 µM

As a next step, examine the compound that follows.
Request: Please report the recorded IC50 for O=C1/C(=C/c2ccc([N+](=O)[O-])cc2)C(=O)N(c2ccccc2)C1c1ccccc1 (stereo not given) .
Result: 41.7 µM
